tested on: K-562 leukemia; assay: NCI tumour cell line growth inhibition, 48 h
Outcome Measure: TGI

Guide cases for TGI, answers given:
COc1ccc2c(c1)nc1n2C(N)=Nc2ccccc2S1 = > 57.8 µM
CS(=O)(=O)OCCN1CCN(C(=O)c2cccc3c(Nc4ccc(S(N)(=O)=O)cc4)c4ccccc4nc23)CC1 = > 81.1 µM
Cc1cc2c(cc1C)[n+](=O)c(C(=O)/C=C/c1ccc(Cl)cc1)c(C)n2[O-] = > 100 µM
Cc1ccc(C)c(COCCOCn2cc(Br)c(N)nc2=O)c1 = > 100 µM
O=C1c2ccccc2-c2c1c1ccc([N+](=O)[O-])cc1c(=O)n2CCNCCCNCCn1c2c(c3ccc([N+](=O)[O-])cc3c1=O)C(=O)c1ccccc1-2 = 28.2 µM

State the recorded TGI for this entry: CN(C)CCOC(=O)c1ccc(N)cc1
> 100 µM

Next record, please: O=C(/C=C/c1ccc(-c2ccccc2)cc1)NCc1ccc(C(=O)NCCc2c[nH]c3ccccc23)cc1
45.6 µM

Next record, please: COc1ccc(C2=CC(c3cc(OC)c(OC)c(OC)c3)NC(=O)N2)cc1OC (centres undefined)
24.5 µM

Next record, please: CC(C)[C@H]1NC(=O)[C@H]2N=C(O[C@@H]2C)[C@@H]2CCCN2C(=O)[C@H](Cc2ccccc2)NC(=O)[C@@H]2CSC(=N2)[C@@H](Cc2ccccc2)NC(=O)[C@@H]2CSC1=N2
> 100 µM

Next record, please: COC(=O)c1ccccc1C#CCCCOS(C)(=O)=O
> 10 µM

Next record, please: CC(=O)OCc1cc(=O)n(C)c2c3c4c(cc12)c(C)cc(=O)n4CO3
27.7 µM

---

system: SF-295 CNS; experiment: NCI tumour cell line growth inhibition, 48 h
Outcome Measure: log10 of TGI (log10 of the value in µM)
Log10 applied to TGI; unit prior to transform: µM.

O=C(c1ccccc1)c1c(C(F)(F)F)n([O-])c2cc(Cl)c(Cl)cc2[n+]1=O = 0.86
CC1=C(SCc2ccccc2)C(=O)c2ccccc2C1=O = 1.51
CNc1nc(C)c(-c2nc(Nc3cccc(S(N)(=O)=O)c3)ncc2F)s1 = 0.83
CCN(CC)c1ccc(N=C2C=CC(=O)c3ncccc32)c(C)c1 = 1.36
CC(=N\O)/C(C)=N/O.CC(=N\O)/C(C)=N/O.CC(=N\O)/C(C)=N/O.CC(=N\O)/C(C)=N/O.[Cu].[Cu] = 1.58
O=C1c2ccccc2C(=O)c2c1ccc1c2N=C(c2ccc(F)cc2)CC(c2ccc(Cl)c(Cl)c2)N1 (stereo not given) = 1.46

State the recorded log10 of TGI for this entry: O=C(CN1CCCCC1)c1ccc2c(c1)Sc1ccccc1O2
1.49

Next record, please: COc1ccccc1/C=C1\CCC(CNc2ccc(Cl)cc2)C1=O (stereo not given)
1.19

Next record, please: Cc1nc2cncc(C#Cc3cncc(C(=O)Nc4ccc(CN5CCN(C)CC5)c(C(F)(F)F)c4)c3)c2nc1C
1.35

Next record, please: CCOC(=O)CCc1c(C(=O)OCC)[nH]c(/C=C2\NC(=O)C(C)=C2CC)c1C
1.62

Next record, please: Cc1nccn1S(=O)(=O)c1ccc(Br)cc1Br
1.97

---

system: CAKI-1 renal; assay: NCI tumour cell line growth inhibition, 48 h
Outcome Measure: TGI (µM)
API: value field is a number in µM; no unit string.

Guide cases for TGI, answers given:
COc1ccc(Nc2ncccc2/C=C/C(=O)c2cc(OC)c(OC)c(OC)c2)cc1 = 3.88
C[N+](C)([O-])CCCNc1c2ccccc2nc2cccc([N+](=O)[O-])c12 = 11.6

State the recorded TGI for this entry: O=C(/C=C/c1ccc(-c2ccccc2)cc1)NCc1ccc(C(=O)NCCc2c[nH]c3ccccc23)cc1
40.7

---

test system: HOP-92 NSCLC; test: NCI tumour cell line growth inhibition, 48 h
TGI by entry:

Guide cases for TGI, answers given:
COc1ccc(Oc2nc3ccc(C(F)(F)F)cc3nc2-c2ccccc2)cc1 = > 100 µM
CC(NC1=NCCO1)c1cccc([N+](=O)[O-])c1 (stereo not given) = > 100 µM
COc1cc(/C=C2\N=C(c3ccccc3)N(/N=C3\C(=O)Nc4ccccc43)C2=O)cc(OC)c1OC = > 100 µM
O=S(=O)([O-])[O-].[Cl-].[NH2-].[NH2-].[NH2-].[NH2-].[Ru+3].c1ccc(-c2cccnc2)cc1 = > 100 µM
CN(C)CCCNc1c2ccccc2nc2cccc([N+](=O)[O-])c12 = 0.00435 µM

State the recorded TGI for this entry: c1cc(C[S+]2CCCC2)ccc1C[S+]1CCCC1
> 100 µM

Next record, please: O=C(Nc1c(Cl)cc([N+](=O)[O-])cc1Cl)C(=O)C1C(=O)NC(=S)NC1=O
> 100 µM

---

test system: HCT-15 colon; assay: NCI tumour cell line growth inhibition, 48 h
Outcome Measure: TGI (µM)
API: value field is a number in µM; no unit string.

Guide cases for TGI, answers given:
C=CC(C)(C)N[C@@H](C(=O)N1CCC[C@H]1c1nc(-c2nc(C(=O)OCC=C(C)C)c(C)o2)c(C)o1)C(C)C = 51.5
O=C1c2ccccc2C(=O)c2c1ccc1c2N=C(c2ccc(F)cc2)CC(c2ccc(Cl)c(Cl)c2)N1 (centres undefined) = 19.8
C=C1C(=O)O[C@H]2C/C(C)=C/CC/C(C)=C/CC[C@@](C)(O)[C@@H](I)C[C@@H]12 = 20.1

Next, consider the following compound.
State the recorded TGI for this entry: COc1ccc(Nc2ccnc(NCCNc3ccnc4cc(Cl)ccc34)n2)cc1
4.03

---

tested on: M14 melanoma; experiment: NCI tumour cell line growth inhibition, 48 h
Outcome Measure: TGI

N#CC(C#N)=Cc1c(O)ccc2ccccc12 = 28.3 µM
CCOC(=O)c1c2c(n3ccc(NC(=O)OC(C)(C)C)cc13)C(=O)c1ncccc1C2=O = 1.26 µM
CC1CC[C@@]2(OC1)O[C@H]1C[C@H]3[C@@H]4CC[C@H]5C[C@@H](OC6OC(CO)C(OC7OC(CO)C(OC8OC(CO)C(O)C(OC9OC(C)C(OC%10OC(C)C(O)C(O)C%10O)C(O)C9O)C8OC8OCC(O)C(O)C8O)C(O)C7O)C(O)C6O)CC[C@]5(C)[C@H]4CC(=O)[C@]3(C)[C@H]1[C@@H]2C (some centres undefined) = 41.7 µM

Hello, I am looking for reported TGI with M14 melanoma for O=CN1N=C(c2ccc(Nc3ccnc4cc(Cl)ccc34)cc2)CC1c1ccccc1 (centres undefined) . Could you help?
31 µM

Next record, please: O=c1[nH]c(=O)n(COCc2ccccc2)c2ccc(Br)cc12
> 100 µM

---

test system: SK-MEL-5 melanoma; experiment: NCI tumour cell line growth inhibition, 48 h
TGI by entry:

Guide cases for TGI, answers given:
Cc1ccc(S(=O)(=O)NC(=O)NCCC(=O)O)cc1 = > 100 µM
CC(=N\O)/C(C)=N/O.CC(=N\O)/C(C)=N/O.CC(=N\O)/C(C)=N/O.CC(=N\O)/C(C)=N/O.[Cu].[Cu] = 32.2 µM
CCc1ccc(-c2ccc(=O)n(-c3ccc(S(N)(=O)=O)cc3)n2)cc1 = > 27.6 µM

State the recorded TGI for this entry: c1cc(C2CCCCC2)ccc1OCCCCCCN1CCNCC1
3.26 µM

Next record, please: O=C1CSC2=NCC3(NN12)c1ccccc1-c1ccccc13
> 10 µM

Next record, please: O=c1[nH]c(=O)n(COCc2ccccc2)c2ccc([N+](=O)[O-])cc12
> 100 µM

---

test system: NCI-H522 lung; test: NCI tumour cell line growth inhibition, 48 h
Outcome Measure: TGI (µM)
API: value field is a number in µM; no unit string.

Guide cases for TGI, answers given:
Cc1nccn1S(=O)(=O)c1ccc(Br)cc1Br = 86.9
CCOC(=O)c1c2c(n3ccc(NC(=O)OC(C)(C)C)cc13)C(=O)c1ncccc1C2=O = 0.817

Next, consider the following molecule.
Hello, I am looking for reported TGI with NCI-H522 lung for N#Cc1c2ccccc2c2n1-c1ccccc1OC(c1ccccc1)C2=O (stereo unspecified) . Could you help?
4.72

---

system: OVCAR-4 ovarian; assay: NCI tumour cell line growth inhibition, 48 h
Outcome Measure: TGI

COc1ccc(C2=CC(c3cc(OC)c(OC)c(OC)c3)NC(=O)N2)cc1OC (configuration not stated) = > 100 µM
N=S(=O)(c1ccccc1)c1ccccc1[N+](=O)[O-] (configuration not stated) = > 100 µM
O=C(Nc1ncc(Cc2ccccc2)s1)c1ccc2c(c1)OCCCO2 = > 100 µM
Cc1cc(=O)c2cc(N=Cc3ccc([N+](=O)[O-])o3)ccc2o1 = > 100 µM
COc1ccc(C[C@H](N)C(=O)N2C[C@H](CO)C[C@H](n3ccc(=O)[nH]c3=O)C2)cc1 = > 100 µM
CCON=C1C(C)(C)C(C)(C)C(C)(C)C1(C)C = > 100 µM
C=CC(C)(C)N[C@@H](C(=O)N1CCC[C@H]1c1nc(-c2nc(C(=O)OCC=C(C)C)c(C)o2)c(C)o1)C(C)C = 71.4 µM
O=S1(=O)N(Cc2ccccc2)[C@@H](Cc2ccccc2)C2O[C@H]2[C@H](Cc2ccccc2)N1Cc1ccccc1 (some centres not stated) = > 7.5 µM
NCCNCCCCCCNC(=O)c1cccc2cc3ccccc3nc12 = 4.7 µM
CS(=O)(=O)N(CCC#N)c1ccc(/C=N/NC(=O)CC(=O)Nc2cccc(Cl)c2)cc1 = > 100 µM

State the recorded TGI for this entry: Cn1ccnc1C(c1nccn1C)C(C)(C)[N+](=O)[O-]
> 100 µM

Next record, please: CCCCCCCCCCCCCCCC(=O)OCC1OC(n2cnc3c(=S)nc(N)[nH]c32)C(OC(=O)CCCCCCCCCCCCCCC)C1OC(=O)CCCCCCCCCCCCCCC (configuration not stated)
> 50 µM
